B1: SNAP91 (parent)
chain: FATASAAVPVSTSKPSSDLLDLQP

Variants of: B1
protocol_description: protein stability index of a GFP-peptide fusion (GPS, HEK-293T) (PSI 1-6); higher = more stable;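 further: lentivirally expressed fusions sorted by FACS into six bins by GFP to DsRed ratio, PSI derived from sequencing read proportions per bin multiplied by bin number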
stated_conditions: c terminus: a fixed tail appended

{"columns": ["mutation_name", "protein stability index"],
 "data": [
  ["S11F", 1.7],
  ["K14Q", 4.61],
  ["P24S", 3.64],
  ["D21P", 3.79],
  ["L19T", 4.22],
  ["L19W", 2.5],
  ["L20C", 3.93],
  ["K14M", 3.48],
  ["L22T", 4.3],
  ["T3N", 3.24],
  ["S11G", 3.73],
  ["A7N", 3.9]
]}
